Target: T1, sRAGE (V-C1-C2) lot LP08062 (human, UniProt Q15109 23-331, limits assumed)
T1 construct: domain: V-C1-C2; also called Human RAGE; LP08062 (Rage)
T1 sequence (Q15109 23-331 limits assumed): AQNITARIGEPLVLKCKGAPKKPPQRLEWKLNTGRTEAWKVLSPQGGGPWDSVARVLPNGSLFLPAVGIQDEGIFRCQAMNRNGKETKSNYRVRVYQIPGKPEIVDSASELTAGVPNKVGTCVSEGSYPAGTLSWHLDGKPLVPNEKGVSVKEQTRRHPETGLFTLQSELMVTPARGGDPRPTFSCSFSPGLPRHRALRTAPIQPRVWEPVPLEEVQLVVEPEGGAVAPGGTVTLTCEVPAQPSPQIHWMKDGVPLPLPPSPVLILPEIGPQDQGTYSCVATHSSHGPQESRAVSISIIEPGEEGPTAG
Experiment: SPR (Biacore), mAb captured on anti-mouse Fc, sRAGE 15 nM, Langmuir 1:1
The following binders are listed with their measured kon values.
The response must be a number in M⁻¹ s⁻¹ with no trailing unit.

Sample records with kon:
| BINDER | kon [M⁻¹ s⁻¹] |
| --- | --- |
| 253 RAGE-1 (antibody, V domains shown, Anti-RAGE monoclonal antibody from a hybridoma, captured by anti-mouse Fc; also called LP08127) VH: QVQLQQSGPELVKPGASVRISCKASGYTFTDYYIHWVKQRPGQGLEWIGWIYPGNVITKYNEKFKGKATLTADKSSSTAYMQLSSLTSEDSAVYFCARYDYDYAMDYWGQGTSVTVSS VL: DIVMSQSPSSLAVSVGEKVTMSCKSSQTLLYSSNQKNYLAWYQQKPGQSLKLLIYWASTRESGVPDRFAGSGSGTDFTLTISSVKAEDLAVYYCQQYFGYPYTFGGGTKLEIK | 3.89e+06 |
| 183 RAGE-1 (antibody, V domains shown, Anti-RAGE monoclonal antibody from a hybridoma, captured by anti-mouse Fc; also called Protein 183 RAGE-1) VH: EVQLQQSGTVLARPGASVKMSCKASGYSFTSYWMHWVKQRPGQGLEWIGAIFPGNSDTTYNQKFKGKAKLTAVTSASTAYMELSSLTNEDSAVYYCTGLRRGFPYWGQGTLVTVSV VL: NIVMTQSPKSMSMSVGERVTLSCKASENVGTYVSWYQQKPEQSPKLLIYGASNRYTGVPDRFTGSGSATDFTLTISSVQAEDLADYHCGQSYSYPYTFGGGTKLEIK | 1.58e+06 |
| 184 RAGE-1 (antibody, V domains shown, Anti-RAGE monoclonal antibody from a hybridoma, captured by anti-mouse Fc; also called Protein 184 RAGE-1) VH: QVQLQQSGAELVRPGTSVKVSCKASGYAFTNYLIEWVKQRPGQGLEWIGMINPGSGGTNYNEKFKGKATLTADKSSSTAYMQLSSLTSDDSAVYFCARGRGGHYRYFDVWGAGTTVTVSS VL: DIVLTQSPASLAVSLGQRATISCRASKSVSTSGYSYMHWYQQKPGQPPKLLIYLASHLESGVPARFSGSGSGTDFSLNIHPVEEEDAATYYCQHSRELPWTFGGGTKLEIK | 2.74e+06 |
| 347 RAGE-1 (antibody, V domains shown, Anti-RAGE monoclonal antibody from a hybridoma, captured by anti-mouse Fc) VH: QVQLQQSGAELAKPGASVKMSCRASGYTFTDYWMHWVKQRPGQGLEWIGFINPSTVYTEYIPKFKDKATLTADKSSSTAYMQLSSLTSEDSAVYYCARSDGGWYFDVWGAGTTVTVSS VL: DIQMTQSSSYLSVSLGGRVTITCKASDRINYWLAWYQQKPGNAPRLLISGATTLETGVPSRFSGSGSGKDYTLSITSLQTEDVATYYCQQYWSTPYTFGGGTKLELK | 3.41e+06 |

Qu. Reported kon for 158 RAGE-1 (antibody, V domains shown, Anti-RAGE monoclonal antibody from a hybridoma, captured by anti-mouse Fc; also called LP08105) VH: QIQLVQSGPELKKPGETVKISCKASGYTFTDYSMHWVKQAPGKGLKWMGWINTETGEPTYADDFKGRFAFSLETSASTAYLLINNLKTEDTATYFCARDYLYYYAMDYWGQGTSVTVSS VL: DVVLTQTPLSLPVNIGDQASISCKSTKSLLNSDGFTYLDWYLQKPGQSPQLLIYLVSNRFSGVPDRFSGSGSGTDFTLKISRVEAEDLGVYYCFQSNYLPLTFGGGTKVEIK : what is it?
Ans. 4.02e+06

Qu. Reported kon for 130 RAGE-1 (antibody, V domains shown, Anti-RAGE monoclonal antibody from a hybridoma, captured by anti-mouse Fc; also called Protein 130 RAGE-1) VH: EVQLVESGGGLVKPGGSLKLSCAASGFTFSSYVMSWVRQSPEKRLEWVAEISSGGSYTYYPDTVTGRFTISRDNDKNTLYLEMSSLRSEDTAMYYCARPPYGKDAMDYWGQGTSVTVSS VL: QIVLTQSPAIMSASPGEKVTMTCSASSSVSYMHWYQQKSGTSPKRWISDTSKLASGVPARFSGSGSGTSYSLTISSMEAEDAATYYCQQWSSNPPTFGGGTKLEIK : what is it?
Ans. 5.76e+06

Qu. Reported kon for 152 RAGE-1 (antibody, V domains shown, Anti-RAGE monoclonal antibody from a hybridoma, captured by anti-mouse Fc; also called LP08104; Protein 152 RAGE-1) VH: DVQLQESGPDLVKPSQSLSLTCTVTGYSITSGYSWHWIRQFPGNKLEWMGYIHYSGSTNYNPSLKSRISITRDTSKNQFFLQLNSVTTEDTATYYCARGGDFAYWGQGTLVTVSA VL: DIVLTQSPASLAVSLGQRATISCRASKSVGTSDSSYMHWYQQKPGQPPKLLIYLASNLESGVPARFSGSGSGTDFTLNIHPVEEEDAATYYCQHSRELYTFGGGTKLEIK : what is it?
Ans. 3.86e+06
